From: patent EP4670717A1

target: IDO1 (Homo sapiens); construct: BxPC3 cells were seeded in phenol red-free RPMI 1640 medium; endogenous in cells; host or cells: BxPC3 cells stimulated with IFN-γ (50 ng/mL); assay: IDO1 degradation in BxPC3 cells, IDO1 protein levels by immunoblotting; assay type: cell-based; settings: BXPC-3, BxPC3 cells, 50 ng/ml IFN-γ 24 h, washout, compound (100 nM) 24 h; maximum IDO1 degradation at 0.1 µM;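 note: IDO1 bands on Western blots detected with fluorescent dye-labelled secondary antibodies and quantified by band intensity, values are means of n biological replicates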
Sequence (P14902 whole entry): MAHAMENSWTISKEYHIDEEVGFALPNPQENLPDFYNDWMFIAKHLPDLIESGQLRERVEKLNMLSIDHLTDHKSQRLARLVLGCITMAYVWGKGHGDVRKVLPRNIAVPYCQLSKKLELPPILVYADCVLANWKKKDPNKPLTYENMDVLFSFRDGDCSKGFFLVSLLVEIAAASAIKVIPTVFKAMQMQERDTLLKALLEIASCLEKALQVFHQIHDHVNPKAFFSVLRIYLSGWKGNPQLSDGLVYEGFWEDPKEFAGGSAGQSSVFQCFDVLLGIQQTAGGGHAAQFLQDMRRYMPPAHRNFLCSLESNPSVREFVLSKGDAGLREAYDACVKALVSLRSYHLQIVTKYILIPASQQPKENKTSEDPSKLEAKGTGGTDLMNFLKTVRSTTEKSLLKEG
readoutKind: Dmax at 0.1 µM

- CC(C)(C)c1ccc(S(=O)(=O)N2C[C@H]3C[C@H]4C[C@H](C4(C)C)[C@@]3(COC(=O)Nc3ccc(I)cc3)C2)c(C2CC2)c1: 55 to 59%
- C#Cc1ccc(NC(=O)OC[C@]23CN(S(=O)(=O)c4ccc(C(C)(C)C)cc4)C[C@H]2C[C@H]2C[C@@H]3C2(C)C)cc1: > 60%
- CC(C)(CC(=O)O)c1ccc(S(=O)(=O)N2C[C@H]3C[C@H]4C[C@H](C4(C)C)[C@@]3(COC(=O)Nc3ccc(I)cc3)C2)cc1: 36 to 46%

----------
biological target: recombinant human IDO1 (rhIDO1) (Homo sapiens, UniProt P14902); construct: Full-length rhIDO protein (1 µM) in 50 mM potassium phosphate buffer; GST (cleaved yes); made in house; host or cells: E. coli; assay: IDO1 enzymatic assay with recombinant protein, Kyn detection with p-DMAB; format: biochemical; details: in vitro inhibition at 59 uM; pre-incubated with compounds at 37°C for 40 min
readoutKind: inhibition at 59 µM (%)

• C#Cc1ccc(NC(=O)OC[C@]23CN(S(=O)(=O)c4ccc(C(C)(C)C(=O)O)cc4)C[C@H]2C[C@H]2C[C@@H]3C2(C)C)cc1 = 78
• Cc1cc(C(C)(C)C(=O)O)ccc1S(=O)(=O)N1C[C@H]2C[C@H]3C[C@H](C3(C)C)[C@@]2(COC(=O)Nc2ccc(I)cc2)C1 = 62
• CC(C)(C(=O)O)c1ccc(S(=O)(=O)N2C[C@H]3C[C@H]4C[C@H](C4(C)C)[C@@]3(COC(=O)Nc3ccc(I)cc3)C2)cc1 = 72

----------
molecular target: recombinant human IDO1 (rhIDO1) (Homo sapiens, UniProt P14902); construct: Full-length rhIDO protein (1 µM) in 50 mM potassium phosphate buffer; GST (cleaved yes); assay: IDO1 enzymatic assay with recombinant protein, Kyn detection with p-DMAB; details: pre-incubated with compounds at 37°C for 40 min; determined if inhibition at 59 µM was higher than 50%; read-out: rhIDO1 enzymatic activity IC50 ± SD
readoutKind: IC50 (nM)

* C#Cc1ccc(NC(=O)OC[C@]23CN(S(=O)(=O)c4ccc(C(C)(C)C(=O)O)cc4)C[C@H]2C[C@H]2C[C@@H]3C2(C)C)cc1 | 310
* CC(C)(C(=O)O)c1ccc(S(=O)(=O)N2C[C@H]3C[C@H]4C[C@H](C4(C)C)[C@@]3(COC(=O)Nc3ccc(I)cc3)C2)c(Cl)c1 | 270
* CC(C)(C(=O)O)c1ccc(S(=O)(=O)N2C[C@H]3C[C@H]4C[C@H](C4(C)C)[C@@]3(COC(=O)Nc3ccc(I)cc3)C2)cc1 | 820
* CC(C)(CC(=O)O)c1ccc(S(=O)(=O)N2C[C@H]3C[C@H]4C[C@H](C4(C)C)[C@@]3(COC(=O)Nc3ccc(I)cc3)C2)cc1 | 1900
* Cc1cc(C(C)(C)C(=O)O)ccc1S(=O)(=O)N1C[C@H]2C[C@H]3C[C@H](C3(C)C)[C@@]2(COC(=O)Nc2ccc(I)cc2)C1 | 110
